Molecular target: Rhodesain (Trypanosoma brucei rhodesiense)
Assay: Inhibition of recombinant Trypanosoma brucei rhodesain expressed in Pichia pastoris at 5 uM using Z-FR-AMC as substrate and measured at 12 sec interval for 5 mins without preincubation by fluorimetric analysis relative to control
inhibition listing for selected molecules.
Give the value, in units of %, as a plain number.

Examples with answers:
>  <Molecule>
Nc1ccc(-c2nc3cc(Oc4ccc(Oc5ccc6[nH]c(-c7ccc(N)cc7)nc6c5)cc4)ccc3[nH]2)cc1

>  <inhibition, %>
13.3

$$$$
>  <Molecule>
COc1ccc(OC)c(C2C3=C(CC(C)(C)CC3=O)N(c3ccc(Cl)c(Cl)c3)C3=C2C(=O)CC(C)(C)C3)c1

>  <inhibition, %>
16.6

$$$$
>  <Molecule>
Nc1ccc(-c2nc3cc(Cc4ccc5[nH]c(-c6ccc(N)cc6)nc5c4)ccc3[nH]2)cc1

>  <inhibition, %>
86.6

$$$$
>  <Molecule>
FC(F)(F)c1cccc(CNC2CCN(CCc3ccccc3)CC2)c1

>  <inhibition, %>
20.3

$$$$

The recorded inhibition for entry COc1ccc(Br)cc1C1Nc2ccc3ccccc3c2C2=C1C(=O)CC(c1ccccc1)C2 (configuration not stated) equals 27.6

// inhibition value for Cc1ccnc(NC(c2cccc(OCc3ccccc3)c2)c2ccc3cccnc3c2O)c1 (configuration not stated) : 0

// recorded inhibition for CCOc1ccc(/C=C/c2nc(=O)c3ccccc3o2)cc1 : 32.7

Notebook: CCC(C)NCC(O)(c1ccc(Cl)cc1)c1ccc(Cl)cc1 (configuration not stated) , inhibition read as 29.1

Looking up CCOc1ccc(C2N(C)c3ccccc3N2C)cc1 , I see its inhibition listed as 30.3

Reported inhibition for COc1cccc(C(=O)NC(c2ccc(C)cc2)c2cc(Cl)c3cccnc3c2O)c1 (configuration not stated) was 31.4

Notebook: Oc1ccc(C(=C(Cl)Cl)c2ccc(O)cc2)cc1 , inhibition read as 22.6

Entry Cc1nc2ccccc2c(O)c1CC=C(Cl)Cl — recorded inhibition = 43.4

Recorded result, COCCN(C(=O)Cc1cccs1)C(C(=O)NCc1ccc(OC)cc1)c1ccc(C(C)C)cc1 (configuration not stated) , inhibition: 38.5

Consider COc1ccc(/C=C2/SC(=Nc3ccccc3)NC2=O)cc1 . Its measured inhibition is 35.6

// recorded inhibition for COc1ccc2sc(N(Cc3cccnc3)C(=O)c3ccc(C#N)cc3)nc2c1 : 50.7

So, Cc1ccc(Nc2nc(-c3ccccn3)cs2)cc1 ? Its inhibition was 4.7
